- Tested on: L1210 leukemia ip in BDF1 mice, survival T/C
- Assay Method Text: NCI In Vivo Anticancer Drug Screen. Data for tumor model L1210 Leukemia (intraperitoneal) in B6D2F1 (BDF1) mice
- Experimental Context: endpoint: mean survival time; dose: 200.0 mg/kg/injection; schedule: Q01DX001 (ip); vehicle: steriod suspending solution; higher = longer survival
Toxic doses and inconclusive results are not listed.
Measured T/C of individual entries
Reported Property: T/C

Cc1ccc2[c](c1)[Sn]([c]1ccccc1)([c]1ccccc1)[c]1cc(C)ccc1N2C : 94 % of control
COC(=O)C1C(C(=O)OC)C1(c1ccccc1)c1ccccc1 (centres undefined) : 112 % of control
Cc1ccc(CC(=S)N2CCOCC2)cc1 : 98 % of control
Cc1ccc(S(=O)(=O)OC2CCCCC2c2ccccc2C)cc1 (centres undefined) : 112 % of control
